Field: cell viability. Provide a value for each of the compounds that follow.
# System: HCI01 (cells of a triple-negative basal-like breast cancer xenograft)
# procedureText: cell viability (% of vehicle); higher = less cytotoxic
# measurementContext: 10 µM; 72 h
API note: the answer field is a bare number with no unit suffix.

Exam item: Output measured cell viability for this item: O=C1CN(/N=C/c2ccc(-c3ccc([N+](=O)[O-])cc3)o2)C([O-])=N1.[Na+] [Dantrolene, sodium salt]
Marked response: 98.7

Exam item: Please indicate cell viability recorded for COC(=O)C(c1ccccc1Cl)N1CCc2sccc2C1.O=S(=O)(O)O (stereo not drawn)
Marked response: 102

Exam item: Give the value of cell viability reported for the following: CCn1cc(C(=O)O)c(=O)c2cc(F)c(N3CCNC(C)C3)c(F)c21.Cl (stereo not drawn) [Lomefloxacin HCl]
Marked response: 97.5

----------
# Test system: HCI13 (cells of an ER-positive luminal breast cancer xenograft)
# procedureText: cell viability (% of vehicle); higher = less cytotoxic
# measurementContext: 10 µM; 72 h
attributeMeasured: cell viability
// return a plain number; no unit text

Exam item: Could you please provide reported cell viability for O=c1oc2c(O)c(O)cc3c(=O)oc4c(O)c(O)cc1c4c23 ? Thanks!
Marked response: 177

Exam item: Tell me measured cell viability for CC1(COc2ccc3c(c2)ncn3-c2ccc3cccc(N4CCC(N)CC4)c3n2)COC1 please.
Marked response: 26.6

Exam item: Please report cell viability for the following compound: CCc1oc2ccccc2c1C(=O)c1cc(Br)c(O)c(Br)c1
Marked response: 128

Exam item: Indicate its recorded cell viability; the compound in question is Cc1cc(=O)n(-c2ccccc2)n1C [Antipyrine]
Marked response: 88.6

Exam item: Provide one value: measured cell viability of O=c1cc[nH]c(=S)[nH]1
Marked response: 82.4

Exam item: Determine its reported cell viability: COc1ccc2cc([C@H](C)C(=O)[O-])ccc2c1.[Na+] [Naproxen Sodium]
Marked response: 124

Exam item: Entry O=C(O)c1cc(-c2ccccc2)nc2ccccc12 needs its cell viability filled in; supply it.
Marked response: 111

Exam item: Read the entry CN1CCCC1CCOC(C)(c1ccccc1)c1ccc(Cl)cc1.O=C(O)C=CC(=O)O (centres undefined) [Clemastine Fumarate] and write its reported cell viability.
Marked response: 136

Exam item: Supply reported cell viability belonging to this compound: CCOc1ccc(Cc2cc(C3OC(CO)C(O)C(O)C3O)ccc2Cl)cc1 (centres undefined)
Marked response: 107

Exam item: Please give the documented cell viability of CC(=O)NC1C(N=C(N)N)C=C(C(=O)O)OC1C(O)C(O)CO (centres undefined)
Marked response: 108

Exam item: Note down cell viability recorded for Cc1cn(C2CC(N=[N+]=[N-])C(CO)O2)c(=O)[nH]c1=O (centres undefined)
Marked response: 124

Exam item: Return the recorded cell viability value; entry: Cl.O=C1Cc2cc(CCN3CCN(c4nsc5ccccc45)CC3)c(Cl)cc2N1 [Ziprasidone HCl]
Marked response: 45.9

Exam item: Please indicate cell viability recorded for CC(C)(Oc1ccc(C2CC2(Cl)Cl)cc1)C(=O)O (centres undefined) [Ciprofibrate]
Marked response: 110

Exam item: Indicate its recorded cell viability; the compound in question is O=C(O)c1cccnc1
Marked response: 112

----------
# System: UCD52 (cells of a triple-negative basal-like breast cancer xenograft)
# procedureText: cell viability (% of vehicle); higher = less cytotoxic
# measurementContext: 10 µM; 72 h
Can you tell me cell viability for the items I'm about to list?
Write the value as a bare number.

Exam item: Give cell viability for the following compound: CCN(CC)CCOC(=O)c1ccc(N)cc1
Marked response: 88.1

Exam item: Find the measured cell viability of NC1CN(c2c(F)cc3c(=O)c(C(=O)O)cn(C4CC4F)c3c2Cl)CC12CC2.O (stereo not given) [Sitafloxacin Hydrate] and report it.
Marked response: 88.8

Exam item: Check the records and state cell viability for COc1cc2nc(N3CCN(C(=O)C4COc5ccccc5O4)CC3)nc(N)c2cc1OC.CS(=O)(=O)O (stereo not given) [Doxazosin Mesylate]
Marked response: 92.4

Exam item: Kindly indicate its recorded cell viability. Item: CCOC(=O)C1=C(C)NC(C)=C(C(=O)OC)C1c1cccc(Cl)c1Cl (stereo not given)
Marked response: 88.5

Exam item: Report measured cell viability; entry is COCCCN1CCC(NC(=O)c2cc(Cl)c(N)c3c2OCC3)CC1 [Prucalopride]
Marked response: 89.3

----------
Kindly supply the reported cell viability values for the records listed here.
# Test system: HCI13
# procedureText: cell viability (% of vehicle); higher = less cytotoxic
# measurementContext: 10 µM; 72 h
Kindly provide the number alone.

Exam item: Give recorded cell viability. CCOc1nc2cccc(C(=O)O)c2n1Cc1ccc(-c2ccccc2-c2nc(=O)o[nH]2)cc1
Marked response: 99.8

Exam item: Find the measured cell viability of COC(=O)C(c1ccccc1Cl)N1CCc2sccc2C1.O=S(=O)(O)O (stereo not drawn) and report it.
Marked response: 103

Exam item: Answer with the recorded cell viability of Cc1c(NC(=O)c2cccnc2)c(=O)n(-c2ccccc2)n1C only.
Marked response: 103

----------
# Tested on: UCD52
# procedureText: cell viability (% of vehicle); higher = less cytotoxic
# measurementContext: 1 µM; 72 h
Decision: cell viability beneath 80 gives yes; cell viability meeting or exceeding 80 gives no.

Exam item: hey, is cell viability for Cc1c(C(=O)NN2CCCCC2)nn(-c2ccc(Cl)cc2Cl)c1-c1ccc(Cl)cc1 lower than 80 or not?
Marked response: no

Exam item: In plain terms, does Cl.OC(CNCC(O)C1CCc2cc(F)ccc2O1)C1CCc2cc(F)ccc2O1 (stereo unspecified) come in under 80 for cell viability?
Marked response: no

Exam item: State whether 80 exceeds cell viability recorded for Clc1ccc(C(Cn2ccnc2)OCc2ccsc2Cl)c(Cl)c1 (stereo unspecified) .
Marked response: no

Exam item: Input Br.Cc1ccc(Sc2ccccc2N2CCNCC2)c(C)c1 ; condition: cell viability strictly below 80. Does it hold?
Marked response: yes

Exam item: Hello, I'm reviewing records and need to know if cell viability of CC(C)CC(NC(=O)CNC(=O)c1cc(Cl)ccc1Cl)B(O)O (stereo unspecified) is below 80. Could you check?
Marked response: yes

----------
# System: HCI11 (cells of an ER-positive luminal breast cancer xenograft)
# procedureText: cell viability (% of vehicle); higher = less cytotoxic
# measurementContext: 10 µM; 72 h
Structures can show the parent of a compound that is named as a salt.
Rule: cell viability below 100 gives Satisfied. Equal to or above 100 gives Not satisfied.

Exam item: hey, is cell viability for Nc1nc(=O)c2nc(CNc3ccc(C(=O)NC(CCC(=O)O)C(=O)O)cc3)cnc2[nH]1 (configuration not stated) lower than 100 or not?
Marked response: Satisfied

Exam item: Is it true that cell viability reported for CCCCOc1ccc(OCCCN2CCOCC2)cc1.Cl [Pramoxine HCl] is less than 100?
Marked response: Not satisfied

Exam item: Find out if reported cell viability for O=C1CCc2cc(OCCCCc3nnnn3C3CCCCC3)ccc2N1 is less than 100
Marked response: Not satisfied

Exam item: cell viability strictly < 100 for this compound? O=C(NS(=O)(=O)c1ccc(Br)s1)c1ccc(Cl)cc1Cl
Marked response: Not satisfied

Exam item: Regarding CCOC(=O)CC(=O)N1CCSC1COc1ccccc1OC (configuration not stated) , kindly confirm whether its cell viability is beneath 100.
Marked response: Satisfied

Exam item: Bench note: check whether CC(C)(C)NCC(O)c1cc(O)cc(O)c1.CC(C)(C)NCC(O)c1cc(O)cc(O)c1.O=S(=O)(O)O (configuration not stated) [Terbutaline Sulfate] shows cell viability below 100
Marked response: Not satisfied

Exam item: Given Cc1cccc(C)c1OCC(C)N.Cl (configuration not stated) [Mexiletine HCl] , is recorded cell viability strictly lower than 100?
Marked response: Not satisfied

Exam item: API: query returns whether the compound falls strictly under 100 in cell viability. Query: COc1cc2nccc(Oc3ccc(NC(=O)C4(C(=O)Nc5ccc(F)cc5)CC4)cc3)c2cc1OC.O=C(O)CC(O)C(=O)O [Cabozantinib malate (XL184)]
Marked response: Satisfied

Exam item: Bench note: check whether CC(C)N=c1cc2n(-c3ccc(Cl)cc3)c3ccccc3nc-2cc1Nc1ccc(Cl)cc1 shows cell viability below 100
Marked response: Satisfied

Exam item: Does the reported cell viability of Clc1ccc(COC(Cn2ccnc2)c2ccc(Cl)cc2Cl)c(Cl)c1.O=[N+]([O-])O (configuration not stated) [Miconazole Nitrate] stay below 100?
Marked response: Satisfied

Exam item: Below 100 on cell viability? Entry C=C1C(=CC=C2CCCC3(C)C2CCC3C(C)CCCC(C)(C)O)CC(O)CC1O (configuration not stated)
Marked response: Satisfied

Exam item: cell viability strictly < 100 for this compound? NNC(=O)c1ccncc1.Nc1ccc(C(=O)O)c(O)c1
Marked response: Not satisfied

Exam item: Would you kindly verify if cell viability of CN1CCN2c3ccccc3Cc3ccccc3C2C1.Cl (configuration not stated) [Mianserin HCl] is strictly less than 100?
Marked response: Satisfied

Exam item: Answer whether the compound CC(C(=O)O)c1ccc2c(c1)[nH]c1ccc(Cl)cc12 (configuration not stated) has cell viability strictly less than 100
Marked response: Satisfied

Exam item: Determine whether this compound shows cell viability lower than 100 (ties excluded): CC(=O)OC1(C(C)=O)CCC2C3C=C(Cl)C4=CC(=O)C5CC5C4(C)C3CCC21C (configuration not stated) [Cyproterone Acetate]
Marked response: Satisfied

Exam item: For this compound, is cell viability lower than 100? COc1cc2c(Nc3ccc(Br)cc3F)ncnc2cc1OCC1CCN(C)CC1 [Vandetanib (ZD6474)]
Marked response: Satisfied

Exam item: Consider CC(=O)Oc1cccc2c1C(=O)c1c(OC(C)=O)cc(C(=O)O)cc1C2=O . Does its cell viability lie strictly below 100?
Marked response: Satisfied

Exam item: Confirm or reject: cell viability of CC1CCOC2Cn3cc(C(=O)NCc4ccc(F)cc4F)c(=O)c(O)c3C(=O)N12 (configuration not stated) lies strictly below 100
Marked response: Not satisfied

Exam item: Please let me know if C=C[C@]1(C)C[C@@H](OC(=O)CSC(C)(C)CNC(=O)[C@H](N)C(C)C)[C@]2(C)[C@H](C)CC[C@]3(CCC(=O)[C@H]32)[C@@H](C)[C@@H]1O [Valnemulin HCl] shows cell viability below 100.
Marked response: Satisfied

Exam item: Take the compound CC(C)(Oc1ccc(C2CC2(Cl)Cl)cc1)C(=O)O (configuration not stated) [Ciprofibrate] and say whether its cell viability is less than 100.
Marked response: Satisfied

Exam item: Input COc1ccc(CN2CCN(C(c3ccc(F)cc3)c3ccc(F)cc3)CC2)c(OC)c1OC.Cl.Cl [Lomerizine HCl] ; condition: cell viability strictly below 100. Does it hold?
Marked response: Satisfied

Exam item: Strictly below 100 in cell viability? CC12C=CC(=O)NC1CCC1C2CCC2(C)C(C(=O)Nc3cc(C(F)(F)F)ccc3C(F)(F)F)CCC12 (configuration not stated) [Dutasteride]
Marked response: Satisfied

These data points were gathered from the supplement of paper PMC6992640.
